- System: 922993-354-T-J3-PDC complex spheroid viability;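 further: spheroids exposed to the agents for one week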
- measurementNotes: Anticancer human tumor 922993-354-T-J3-PDC patient-derived endometrial carcinoma cell line growth inhibition [POLQ]
- measurementContext: curve of first compound; second compound 0.316 µM
# IC50 per record follows

Reported IC50 for Cn1ncnc1[C@H]1c2n[nH]c(=O)c3cc(F)cc(c23)N[C@@H]1c1ccc(F)cc1 + Nc1ccc(C#CCN(C(=O)Cc2ncc(C(F)(F)F)cc2C(F)(F)F)c2ccc(F)cc2)nn1 : what is it?
> 100 nM

Name the recorded IC50 for Nc1ccn(C2OC(CO)C(O)C2(F)F)c(=O)n1 (stereo not given) + COC1C(OC(N)=O)C(O)C(Oc2ccc3c(O)c(NC(=O)c4ccc(O)c(CC=C(C)C)c4)c(=O)oc3c2C)OC1(C)C .
< 31.6 nM

Requested field: IC50. Item: CC1COCCN1c1cc(-c2ccnn2C)c2ccnc(-c3ccn[nH]3)c2n1 (stereo not given) + Nc1ccc(C#CCN(C(=O)Cc2ncc(C(F)(F)F)cc2C(F)(F)F)c2ccc(F)cc2)nn1
717 nM

What does the record list as IC50 for CCc1cc2c(N3CCc4c(cc(Cn5ccnc5)cc4-c4cn(C)nc4C(F)(F)F)C3=O)ccnc2c(OC)n1 + COC1C(OC(N)=O)C(O)C(Oc2ccc3c(O)c(NC(=O)c4ccc(O)c(CC=C(C)C)c4)c(=O)oc3c2C)OC1(C)C ?
> 10000 nM

Any idea what IC50 was measured for Cn1ncnc1[C@H]1c2n[nH]c(=O)c3cc(F)cc(c23)N[C@@H]1c1ccc(F)cc1 + Cc1cccc(N(C)C(=O)C2C(O)CCN2c2nc(C)cc(C(F)(F)F)c2C#N)c1 ?
> 100 nM
